Assignment: determine reported IC50 for the given compounds.
- Measured On: full-length human RORγt (Homo sapiens (Human))
- Experimental Protocol: RORγt (full-length human) reporter assay, Conditions B or C
- Type: cell-based
- Setup Conditions: Conditions B or C; read-out: RORγt (FL) Reporter Assay B or C, IC50
Mention the unit after the number when you answer.

-- ask Identify measured IC50 associated with C[C@H](Nc1cc(C(F)F)c(-c2sc(C(=O)N[C@H](C)C(C)(C)O)nc2C(=O)N2CC(F)(F)C[C@@H]2C)cn1)C(F)(F)F [Example 198]
-- reply 53 nM

-- ask In one line, give reported IC50 of the entry C[C@H]1CC(F)(F)CN1C(=O)c1nc(C(=O)NCC(C)(C)O)sc1-c1cnc(NCC2(C(F)(F)F)CCC2)cc1C(F)(F)F [Example 118] .
-- reply 7.1 nM

-- ask # return recorded IC50 for input C[C@H]1CC(F)(F)CN1C(=O)c1nc(C(=O)NCC(C)(C)O)sc1-c1cnc(NCC(C)(C)C)cc1C(F)(F)F [Example 85]
-- reply 27 nM

-- ask Tell me IC50 reported for C[C@H](Nc1cc(C(F)F)c(-c2sc(C(=O)N[C@@H]3COC[C@@H]3O)nc2C(=O)N2CCC[C@@H]2C)cn1)C(F)(F)F (single isomer, unassigned) [Example 159]
-- reply 32 nM

-- ask Hello, please tell me recorded IC50 for this one: CCC(C)(C)Nc1cc(C(F)(F)F)c(-c2sc(C(=O)NCC(C)(C)O)nc2C(=O)N2CC(F)(F)C[C@@H]2C)cn1 [Example 103]
-- reply 3.9 nM

-- ask Tell me IC50 reported for CC[C@H](Nc1cc(C(F)F)c(-c2sc(C(=O)N[C@H]3C[C@H]3O)nc2C(=O)N2CCC[C@@H]2C)cn1)C(F)(F)F (relative stereo) [Example 212]
-- reply 300 nM

---

- Measured On: full-length human RORγt (Homo sapiens (Human), UniProt P51449)
- Sequence (P51449 other isoform, or with tags, fused parts or gaps): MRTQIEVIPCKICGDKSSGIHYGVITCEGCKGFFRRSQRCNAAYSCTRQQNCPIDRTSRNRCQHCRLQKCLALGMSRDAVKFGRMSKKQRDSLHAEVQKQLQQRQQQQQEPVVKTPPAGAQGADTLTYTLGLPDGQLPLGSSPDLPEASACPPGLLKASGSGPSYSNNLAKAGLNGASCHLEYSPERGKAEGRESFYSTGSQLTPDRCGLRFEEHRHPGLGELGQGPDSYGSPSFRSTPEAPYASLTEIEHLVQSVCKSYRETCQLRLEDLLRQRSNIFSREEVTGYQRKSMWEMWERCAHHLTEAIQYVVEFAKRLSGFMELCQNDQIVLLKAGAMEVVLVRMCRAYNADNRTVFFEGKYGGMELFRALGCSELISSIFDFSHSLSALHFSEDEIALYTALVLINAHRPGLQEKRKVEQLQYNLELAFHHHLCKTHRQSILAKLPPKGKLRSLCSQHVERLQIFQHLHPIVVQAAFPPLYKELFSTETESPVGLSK
- Experimental Protocol: RORγt (full-length human) reporter assay, Conditions B or C
- Format: cell-based
- Setup Conditions: Conditions B or C; marked *: footnote not given
Kindly state RORγt (FL) Reporter Assay B or C, % inhibition (value marked *) for each of the entries shown.

-- ask Note down RORγt (FL) Reporter Assay B or C, % inhibition (value marked *) recorded for C[C@H]1CCCN1C(=O)c1nc(C(=O)NCC(C)(C)O)sc1-c1cnc(NC(C2CC2)C2CC2)cc1C(F)F [Example 179]
-- reply 105* %

-- ask State its RORγt (FL) Reporter Assay B or C, % inhibition (value marked *): C[C@H]1CC(F)(F)CN1C(=O)c1nc(C(=O)NCC(C)(C)O)sc1-c1cnc(NCC2(C(F)(F)F)CC2)cc1C(F)(F)F [Example 126]
-- reply 98* %

-- ask Answer with the recorded RORγt (FL) Reporter Assay B or C, % inhibition (value marked *) for the molecule listed here: CC[C@H](Nc1cc(C(F)(F)F)c(-c2sc(C(=O)N[C@H]3COC[C@@H]3O)nc2C(=O)N2C3CCC2CC3)cn1)C(F)(F)F [Example 156]
-- reply 102* %

-- ask Respond only with RORγt (FL) Reporter Assay B or C, % inhibition (value marked *) recorded for C[C@H]1CCCN1C(=O)c1nc(C(=O)N2CC(C)(O)C2)sc1-c1cnc(NC(C)(C)C)cc1C(F)F [Example 149]
-- reply 108* %

-- ask Kindly indicate its recorded RORγt (FL) Reporter Assay B or C, % inhibition (value marked *). Item: C[C@H]1CCCN1C(=O)c1nc(C(=O)NCC2(O)COC2)sc1-c1cnc(NC2CCCC2)cc1C(F)F [Example 73]
-- reply 104* %

-- ask Check the records and state RORγt (FL) Reporter Assay B or C, % inhibition (value marked *) for C[C@H]1CC(F)(F)CN1C(=O)c1nc(C(=O)NCC(C)(C)O)sc1-c1cnc(NC(C)(C)C2CC2)cc1C(F)F [Example 106]
-- reply 117* %

-- ask Give the value of RORγt (FL) Reporter Assay B or C, % inhibition (value marked *) reported for the following: C[C@H]1CCCN1C(=O)c1nc(C(=O)NCC(C)(C)O)sc1-c1cnc(N[C@H](C)C(F)(F)F)cc1C(F)(F)F [Example 54]
-- reply 109* %

---

- Measured On: human RORγt ligand binding domain (RORγt LBD) (Homo sapiens (Human))
- Sequence (P51449 other isoform, or with tags, fused parts or gaps): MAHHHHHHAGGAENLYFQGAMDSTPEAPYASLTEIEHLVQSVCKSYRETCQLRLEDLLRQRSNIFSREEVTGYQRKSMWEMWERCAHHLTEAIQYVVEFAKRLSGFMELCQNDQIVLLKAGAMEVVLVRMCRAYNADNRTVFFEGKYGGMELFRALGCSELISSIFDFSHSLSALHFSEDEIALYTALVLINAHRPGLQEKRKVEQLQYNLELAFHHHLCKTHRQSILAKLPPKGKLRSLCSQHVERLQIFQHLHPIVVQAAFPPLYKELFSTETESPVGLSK
- Experimental Protocol: RORγt ThermoFluor® assay (thermal shift binding)
- Setup Conditions: read-out: ThermoFluor® Assay, Kd
Measured Endpoint: pKd
Reminder that pKd means the negative base-10 logarithm of the concentration expressed in mol/L.

-- ask Please give the documented pKd of `CC[C@H](Nc1cc(C(F)F)c(-c2sc(C(=O)NC3CS(=O)(=O)C3)nc2C(=O)N2CCC[C@@H]2C)cn1)C(F)(F)F`
-- reply 8.60

-- ask Give reported pKd value for `CC[C@H](Nc1cc(C(F)F)c(-c2sc(C(=O)N[C@H]3CC[C@H](O)C3)nc2C(=O)N2CC(F)(F)C[C@@H]2C)cn1)C(F)(F)F`
-- reply 9.37

-- ask Output measured pKd for this item: `C[C@H]1CCCN1C(=O)c1nc(C(=O)N[C@H](C)C(C)(C)O)sc1-c1cnc(NCC(C)(C)C)cc1C(F)(F)F`
-- reply 8.85

-- ask Please report pKd for the following compound: `C[C@H](Nc1cc(C(F)F)c(-c2sc(C(=O)NC3CCOCC3)nc2C(=O)N2CCC[C@@H]2C)cn1)C(F)(F)F`
-- reply 8.37

-- ask Answer with the recorded pKd of C[C@H](Nc1cc(C(F)F)c(-c2sc(C(=O)N[C@@H]3CC[C@H]3O)nc2C(=O)N2CCC[C@@H]2C)cn1)C(F)(F)F (relative stereo) only.
-- reply 8.00

-- ask # return recorded pKd for input CC[C@H](Nc1cc(C(F)F)c(-c2sc(C(=O)NC3CCC3O)nc2C(=O)N2CCC[C@@H]2C)cn1)C(F)(F)F (stereo partly drawn) [Example 375]
-- reply 8.24

-- ask Look up and state reported pKd for `CC[C@H](Nc1cc(C(F)F)c(-c2sc(C(=O)N[C@@H]3CC[C@@H](O)C3)nc2C(=O)N2C3CCC2CC3)cn1)C(F)(F)F`
-- reply 9.06

-- ask Fill in pKd for record C[C@@H](Nc1cc(C(F)(F)F)c(-c2sc(C(=O)NCC(C)(C)O)nc2C(=O)N2C3CCC2CC3)cn1)C1CCC1 (stereo in doubt)
-- reply 8.92

-- ask Assign pKd to the following record: CC[C@H](Nc1cc(C(F)F)c(-c2sc(C(=O)NC3CCCC3O)nc2C(=O)N2CCC[C@@H]2C)cn1)C(F)(F)F (stereo partly drawn)
-- reply 8.92

-- ask Answer with reported pKd of `CC[C@H](Nc1cc(C(F)(F)F)c(-c2sc(C(=O)NCC(C)(C)O)nc2C(=O)N2CC(F)(F)C[C@@H]2C)cn1)C(F)(F)F`
-- reply 9.00

-- ask Write down pKd measured for item C[C@H]1CCCCN1C(=O)c1nc(C(=O)NCC(C)(C)O)sc1-c1cnc(N[C@@H]2CCCCC2(F)F)cc1C(F)(F)F (relative stereo)
-- reply 9.82

-- ask Respond only with pKd recorded for CC[C@H](Nc1cc(C(F)F)c(-c2sc(C(=O)N[C@@H]3CC[C@H]3O)nc2C(=O)N2CCC[C@@H]2C)cn1)C(F)(F)F (relative stereo)
-- reply 8.42

---

- Measured On: UniProt P51449
- Experimental Protocol: RORγt (full-length human) reporter assay, Conditions B or C
- Assay type: cell-based
- Setup Conditions: read-out: RORγt (FL) Reporter Assay B or C, IC50
Measured Endpoint: pIC50
Units for pIC50: none; it is -log10 of a concentration expressed in mol/L.

-- ask Complete the entry with pIC50 for C[C@H]1CCCN1C(=O)c1nc(C(=O)NCC(C)(C)O)sc1-c1cnc(NCC2(C)CC2)cc1C(F)(F)F [Example 278]
-- reply 7.40

-- ask Give recorded pIC50. C[C@H](Nc1cc(C(F)F)c(-c2sc(C(=O)NC3CN(S(C)(=O)=O)C3)nc2C(=O)N2CCC[C@@H]2C)cn1)C(F)(F)F [Example 409]
-- reply 7.44

-- ask Tell me pIC50 reported for C[C@H]1CCCN1C(=O)c1nc(C(=O)NCc2nnn[nH]2)sc1-c1cnc(NC(C)(C)C)cc1C(F)(F)F [Example 303]
-- reply 6.13

-- ask Look up and state reported pIC50 for C[C@H]1CC(F)(F)CN1C(=O)c1nc(C(=O)N[C@H]2C[C@H](O)C2)sc1-c1cnc(NC2(C)CCC2)cc1C(F)F [Example 327]
-- reply 7.96

-- ask Give reported pIC50 value for C[C@H](Nc1cc(C(F)F)c(-c2sc(C(=O)N[C@H]3CC[C@H]3O)nc2C(=O)N2CCC[C@@H]2C)cn1)C(F)(F)F (relative stereo) [Example 390]
-- reply 7.55

-- ask Provide measured pIC50 value, entry: CC[C@H](Nc1cc(C(F)F)c(-c2sc(C(=O)N[C@H]3C[C@H](O)C3)nc2C(=O)N2CC(F)(F)C[C@@H]2C)cn1)C(F)(F)F [Example 449]
-- reply 7.68

-- ask Tell me pIC50 reported for C[C@H](CO)NC(=O)c1nc(C(=O)N2CC(F)(F)C[C@@H]2C)c(-c2cnc(NC(C)(C)C)cc2C(F)F)s1 [Example 428]
-- reply 7.77

-- ask Please look at this molecule and report its pIC50: C[C@H]1CCCN1C(=O)c1nc(C(=O)N[C@H]2C[C@@](C)(O)C2)sc1-c1cnc(NC(C)(C)C)cc1C(F)(F)F [Example 337]
-- reply 7.89

-- ask Dear colleague, please send me the reported pIC50 for CC[C@H](Nc1cc(C(F)F)c(-c2sc(C(=O)N3CC4(CCO4)C3)nc2C(=O)N2CCC[C@@H]2C)cn1)C(F)(F)F [Example 385] when you can.
-- reply 6.46

-- ask Name the recorded pIC50 of the molecule listed here: C[C@H]1CCCN1C(=O)c1nc(C(=O)N[C@H](C)C(C)(C)O)sc1-c1cnc(NCC(C)(C)C)cc1C(F)(F)F [Example 334]
-- reply 8.15

-- ask Kindly indicate its recorded pIC50. Item: C[C@H](Nc1cc(C(F)F)c(-c2sc(C(=O)NC3CCOCC3)nc2C(=O)N2CC(F)(F)C[C@@H]2C)cn1)C(F)(F)F [Example 448]
-- reply 7.55

-- ask Read off the recorded pIC50 for C[C@@H](CO)NC(=O)c1nc(C(=O)N2CCC[C@@H]2C)c(-c2cnc(NC(C)(C)C)cc2C(F)(F)F)s1 [Example 362]
-- reply 7.68

-- ask Find the measured pIC50 of C[C@H](NC(=O)c1nc(C(=O)N2CCC[C@@H]2C)c(-c2cnc(NC(C)(C)C)cc2C(F)(F)F)s1)C(C)(C)O [Example 336] and report it.
-- reply 8.25
